# TEST DETAILS: Plasma half life in DIO mice after 10 mg/kg oral dose
# Type: ADME, organism-based
# Design: dose 10 mg/kg, route oral
# SETUP CONDITIONS: mouse
MEASURED METRIC: half-life (h)
Quick reminder: number only, in h, skip the unit.

- SMILES REPRESENTATION: "CC(C)OCCNc1ncc(Cl)cc1C(=O)NC1CCN(Cc2ccc3c(c2)OCO3)CC1"
  half-life, h: 2.3

Next compound, please.
If you can, please state the reported half-life value of "O=C(NC1CCN(Cc2ccc3c(c2)OCO3)CC1)c1cc(Cl)ccc1NCc1nccs1" . 3.8

---

# TEST SYSTEM: Melanin-concentrating hormone receptor 1 (Homo sapiens, UniProt Q99705)
# Sequence (Q99705 whole entry): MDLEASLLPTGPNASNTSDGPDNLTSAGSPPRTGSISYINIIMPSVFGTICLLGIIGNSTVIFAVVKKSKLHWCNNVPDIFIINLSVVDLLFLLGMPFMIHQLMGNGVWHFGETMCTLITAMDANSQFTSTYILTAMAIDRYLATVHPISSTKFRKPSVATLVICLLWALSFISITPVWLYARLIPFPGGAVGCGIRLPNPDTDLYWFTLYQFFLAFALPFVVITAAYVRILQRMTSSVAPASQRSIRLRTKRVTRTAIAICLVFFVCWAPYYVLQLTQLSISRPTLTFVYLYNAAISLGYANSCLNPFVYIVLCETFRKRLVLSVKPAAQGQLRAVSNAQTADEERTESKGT
# TEST DETAILS: Inhibitory activity towards melanin-concentrating hormone receptor 1 in IMR32 cells
# Type: cell-based, IMR-32
MEASURED METRIC: IC50
Mention the unit after the number when you answer.

- SMILES REPRESENTATION: "COc1ccc(NCC2CC2)c(C(=O)NC2CCN(Cc3ccc4c(c3)OCO4)CC2)c1"
  RESULT: "10 nM"
- SMILES REPRESENTATION: "COc1ccc(NCc2cncn2C)c(C(=O)NC2CCN(Cc3ccc4c(c3)OCO4)CC2)c1"
  RESULT: "90 nM"

I have this compound here, "CC(C)OCCCNc1ncc(Cl)cc1C(=O)NC1CCN(Cc2ccc3c(c2)OCO3)CC1" , and I need its recorded IC50. 7 nM

---

Recorded measurements of pIC50, one per entry
# TEST SYSTEM: Melanin-concentrating hormone receptor 1 (Homo sapiens)
# TEST DETAILS: Inhibitory activity towards melanin-concentrating hormone receptor 1 in IMR32 cells
# Format: cell-based, IMR-32
Just so you know, pIC50 here is -log10 of the concentration in molar units; reply with that number alone.

Given the entry "CC(C)OCCNc1ncc(-c2ccncc2)cc1C(=O)NC1CCN(Cc2ccc3c(c2)OCO3)CC1" , report its measured pIC50. 6.85

Now consider "O=C(NC1CCN(Cc2ccc3c(c2)OCO3)CC1)c1cccc(Cl)c1" . 6.96

Likewise for "CC(C)Nc1ncc(Cl)cc1C(=O)NC1CCN(Cc2ccc3c(c2)CCO3)CC1" ? 7.15

---

List of IC50 values.
# TEST SYSTEM: Melanin-concentrating hormone receptor 1 (Homo sapiens, UniProt Q99705)
# TEST DETAILS: Inhibitory activity towards melanin-concentrating hormone receptor 1 in IMR32 cells
# Format: cell-based, IMR-32
Express your answer in nM, writing the number without its unit.

Some entries whose results are on file:
- SMILES REPRESENTATION: "COc1ccc(NCC2CCCCC2)c(C(=O)NC2CCN(Cc3ccc4c(c3)OCO4)CC2)c1"
  IC50, nM: 50
- SMILES REPRESENTATION: "CS(=O)(=O)Nc1ccc(Cl)cc1C(=O)NC1CCN(Cc2ccc3c(c2)OCO3)CC1"
  IC50, nM: 560
- SMILES REPRESENTATION: "O=C(NC1CCN(Cc2ccc3c(c2)OCO3)CC1)c1cc(Cl)cnc1NCc1nccs1"
  IC50, nM: 6
- SMILES REPRESENTATION: "O=C(NC1CCN(Cc2ccc3ccccc3c2)CC1)c1cc(Cl)ccc1NCc1nccs1"
  IC50, nM: 6

Could you now consider this next compound?
Any idea what its IC50 is? The compound is "O=C(NC1CCN(Cc2ccc3ncccc3c2)CC1)c1cc(Cl)ccc1NCc1nccs1" 20

---

# TEST SYSTEM: UniProt:Q99705
# TEST DETAILS: Inhibitory concentration against MCH1R IMR32 cells in FLIPR-based assay
# Type: cell-based, IMR-32
pIC50: −log10 of the molar value.
Label rule, in plain words: pIC50 of 7 and up is true, under 7 is false.

See these solved cases before continuing.
- MOLECULE: "COc1ccc(NCc2c[nH]cn2)c(C(=O)NC2CCN(Cc3ccc4ccccc4c3)CC2)c1"
  CAT: "false"
- MOLECULE: "CC(C)CNc1ncc(Cl)cc1C(=O)NC1CCN(Cc2ccc3c(c2)OCO3)CC1"
  CAT: "true"
- MOLECULE: "COc1ccc(NCc2ncc[nH]2)c(C(=O)NC2CCN(Cc3ccc4c(c3)OCO4)CC2)c1"
  CAT: "false"
- MOLECULE: "O=C(NC1CCN(Cc2ccc3c(c2)OCO3)CC1)c1cc(Cl)cnc1NCc1cnc[nH]1"
  CAT: "true"
- MOLECULE: "O=C(NC1CCN(Cc2ccc3ccccc3c2)CC1)c1cc(Cl)ccc1NCc1nccs1"
  CAT: "true"

Test whether the molecule "O=C(Nc1ccc(Cl)cc1C(=O)NC1CCN(Cc2ccc3c(c2)OCO3)CC1)c1ccccn1" records pIC50 of 7 or higher. false

Next entry: "O=C(NC1CCN(Cc2ccc(Cl)cc2)CC1)c1cc(Cl)cnc1NCc1ccco1" false

Can you check "CC(C)OCCCNc1ncc(Cl)cc1C(=O)NC1CCN(Cc2ccc3c(c2)OCO3)CC1" next? true

How about this molecule: "O=C(NC1CCN(Cc2ccc3c(c2)OCO3)CC1)c1cc(Cl)cnc1NCc1cscn1" true

---

# TEST SYSTEM: Melanin-concentrating hormone receptor 1 (Homo sapiens, UniProt Q99705)
# TEST DETAILS: Inhibitory concentration against MCH1R IMR32 cells in FLIPR-based assay
# Assay type: cell-based, IMR-32
Here, each record is paired with measured pIC50 data.
// field semantics: pIC50 = negative decimal log of concentration (mol/L)

Example entries and their recorded answers appear below.
- COMPOUND: "COc1ccc(NCC2CC2)c(C(=O)NC2CCN(Cc3ccc4c(c3)OCO4)CC2)c1"
  TEST SYSTEM: "Melanin-concentrating hormone receptor 1 (Homo sapiens, UniProt Q99705)"
  pIC50: 7.05
- COMPOUND: "COc1ccc(NCc2cncn2C)c(C(=O)NC2CCN(Cc3ccc4c(c3)OCO4)CC2)c1"
  TEST SYSTEM: "Melanin-concentrating hormone receptor 1 (Homo sapiens, UniProt Q99705)"
  pIC50: 7.00
- COMPOUND: "O=C(NC1CCN(Cc2ccc3c(c2)OCO3)CC1)c1cc(Cl)cnc1NC1CCC1"
  TEST SYSTEM: "Melanin-concentrating hormone receptor 1 (Homo sapiens, UniProt Q99705)"
  pIC50: 7.52
- COMPOUND: "O=C(NC1CCN(Cc2ccc3c(c2)OCO3)CC1)c1cc(Cl)cnc1NCc1ncc[nH]1"
  TEST SYSTEM: "Melanin-concentrating hormone receptor 1 (Homo sapiens, UniProt Q99705)"
  pIC50: 7.15
- COMPOUND: "CC(C)Nc1ncc(Cl)cc1C(=O)NC1CCN(Cc2ccc3c(c2)CCO3)CC1"
  TEST SYSTEM: "Melanin-concentrating hormone receptor 1 (Homo sapiens, UniProt Q99705)"
  pIC50: 7.15
- COMPOUND: "COc1ccc(NCC2CCOC2)c(C(=O)NC2CCN(Cc3ccc4c(c3)OCO4)CC2)c1 (stereo not drawn)"
  TEST SYSTEM: "Melanin-concentrating hormone receptor 1 (Homo sapiens, UniProt Q99705)"
  pIC50: 7.40
- COMPOUND: "O=C(NC1CCN(Cc2ccc3c(c2)OCO3)CC1)c1cc(Cl)cnc1NCC1CC1"
  TEST SYSTEM: "Melanin-concentrating hormone receptor 1 (Homo sapiens, UniProt Q99705)"
  pIC50: 7.70
- COMPOUND: "O=C(NC1CCN(Cc2ccc3c(c2)OCO3)CC1)c1cc(Cl)ccc1NCc1nccs1"
  TEST SYSTEM: "Melanin-concentrating hormone receptor 1 (Homo sapiens, UniProt Q99705)"
  pIC50: 7.80

Lab note: need pIC50 for "COc1ccc(NCC2CCCCC2)c(C(=O)NC2CCN(Cc3ccc4c(c3)OCO4)CC2)c1" on Melanin-concentrating hormone receptor 1 (Homo sapiens, UniProt Q99705), anyone have it? 5.97

How about "COc1ccc(NCc2c[nH]cn2)c(C(=O)NC2CCN(Cc3ccc4ncccc4c3)CC2)c1" ? 7.00

Also "O=C(NC1CCN(Cc2ccc3c(c2)OCO3)CC1)c1cc(Cl)ccc1O" , if possible. 6.29

Please answer likewise for "COc1ccc(NCc2c[nH]cn2)c(C(=O)NC2CCN(Cc3ccc4c(c3)OCO4)CC2)c1" 7.30

Try this compound next: "O=C(NC1CCN(Cc2ccc3ncccc3c2)CC1)c1cc(Cl)ccc1NCc1nccs1" 7.52

Where these numbers come from: ChEMBL document CHEMBL1141038
